Tested on: OVCAR-3 ovarian
experimental protocol: NCI tumour cell line growth inhibition, 48 h
parameter measured: TGI

Prompt: Return TGI measured with OVCAR-3 ovarian given this compound: `COc1cc(N2C(=O)C(=O)C3(CCCCC3)C2=O)cc(OC)c1OC`
Completion: > 100 µM

Prompt: Request: `Nc1nc2[nH]c(=O)cnc2c(=O)[nH]1`
Completion: > 125 µM

Prompt: Request: `CN(C)c1[se]nc2c1c(=O)n(C)c(=O)n2C`
Completion: > 100 µM

Prompt: Request: `O=C(NC(=S)Nc1ccccn1)c1ccccc1`
Completion: > 100 µM

Prompt: Request: `CC(=O)[CH-]C(=O)c1ccccc1.CC(=O)[CH-]C(=O)c1ccccc1.CCN(CC)CC[O-].CCN(CC)CC[O-].Cl.[Hf+4]`
Completion: > 100 µM

Prompt: Request: `COc1cccc(/C=C/c2ccc(S(N)(=O)=O)cc2)c1`
Completion: 27.5 µM

Prompt: Request: COC(=O)C1(NC(=O)C(CC(=O)OCc2ccccc2)NC(=O)OCc2ccccc2)CCCCCCC1 (configuration not stated)
Completion: > 100 µM

Prompt: Request: `COC(=O)[C@@H]1C[C@@]23CCCN4CC[C@@]5(c6cccc(OC)c6N(C=O)[C@]15CC2)[C@@H]43`
Completion: > 100 µM

Prompt: Request: CC(=O)OC1CC2CC(=O)CC1N2C (configuration not stated)
Completion: > 100 µM

Prompt: Request: `CCOC(=O)C1C(c2ccccc2)=C(c2ccccc2)C(c2ccccc2)=C1c1ccccc1`
Completion: 68.7 µM

Prompt: Request: C=CCSc1nc2c(N)ncnc2n1C1OC(CO)C(O)C1O (configuration not stated)
Completion: > 100 µM

Prompt: Request: CCOC(=O)C(C(CC(=O)OC)NC(=O)OCc1ccccc1)C1(C)OCCO1 (configuration not stated)
Completion: > 100 µM

Prompt: Request: C[C@]12CC[C@H](O)CC1=CC[C@@H]1C2CC[C@]2(C)c3n[nH]nc3CC12 (some centres not stated)
Completion: > 100 µM

Prompt: Request: C=C1CC2(OC1=O)C(=O)N(C)c1ccc(I)cc12 (configuration not stated)
Completion: 1.43 µM

Prompt: Request: `C(=N\c1nc2cc3sc(/N=C/c4cccs4)nc3cc2s1)/c1cccs1`
Completion: > 100 µM

Prompt: Request: Cc1cccc2c1CC(C1OC(=O)c3ccccc31)C2=O (configuration not stated)
Completion: > 100 µM

Prompt: Request: `C/C(=N\NC(=S)Nc1ccccc1)c1nc2ncccc2[nH]1`
Completion: 17.1 µM

Prompt: Request: `CCn1c2ccccc2c2cc(/C=C(/C#N)C(N)=S)ccc21`
Completion: 18.2 µM

Prompt: Request: `CC(/C=N/N(C)C1=NCCCN1)=N/N(C)C1=NCCCN1`
Completion: > 100 µM

Prompt: Request: CCCCC1CC(c2ccc(Cl)cc2)=NO1 (configuration not stated)
Completion: > 100 µM

Prompt: Request: `O=C1c2ccccc2-c2nc(-c3ccncc3)cc3c2c1nc1ccccc13`
Completion: 12.8 µM

Prompt: Request: `COc1cc(/C=C/C(=O)Nc2ccc3c(c2)/C(=C\c2cccn2C)C(=O)N3)cc(OC)c1OC`
Completion: 22.3 µM

----------
Record form. Attribute: TGI. Fill in for each entry.
Tested on: OVCAR-8 ovarian
experimental protocol: NCI tumour cell line growth inhibition, 48 h

Prompt: What TGI value was documented for this compound, `O=C1C=CC(=O)c2c(O)c(N3CCN(c4ccccn4)CC3)c(Cl)c(O)c21` ?
Completion: 6.25 µM

Prompt: Request: COC1CCN(N(C)C)O1 (configuration not stated)
Completion: > 100 µM

Prompt: Request: `CCOC(=O)NC(Nc1ccc(OC(F)(F)F)cc1)(C(F)(F)F)C(F)(F)F`
Completion: > 100 µM

Prompt: Request: Cn1c(C(O)C2(c3cccnc3)SCCCS2)cc2ccccc21 (configuration not stated)
Completion: > 100 µM

Prompt: Request: CCN1C(=O)N(C)C(O)c2c1nc1ccccn1c2=O (configuration not stated)
Completion: 46.4 µM

Prompt: Request: `COc1ccc(-c2csc(-n3c(-c4ccccc4)nc4c(Br)cc(Br)cc4c3=O)n2)cc1`
Completion: > 100 µM

Prompt: Request: CC1NS(=O)(=O)N(C)C1=O (configuration not stated)
Completion: > 100 µM

Prompt: Request: `CCOC(=O)c1csc(CCCCCCc2nc(C(=O)OCC)cs2)n1`
Completion: > 87.2 µM

Prompt: Request: `Sc1ccccc1S`
Completion: > 10 µM

Prompt: Request: `COc1cc(Nc2nc3ccccc3n3cccc23)cc(OC)c1OC`
Completion: > 100 µM

Prompt: Request: `COc1ccc2c(c1)[C@@H]1c3cc(OC)c(OC)cc3CCN1CCC2`
Completion: > 100 µM

Prompt: Request: `N#C/C(C(=O)Nc1ccccc1)=C(/N)N1CCCC1`
Completion: > 100 µM

Prompt: Request: C=C1c2c(C)nn(-c3ccc(OC)cc3)c2N(C)C23C[C@@H]1C1(C)c4c(C)nn(-c5ccc(OC)cc5)c4N(C)C(C)(C[C@H]12)C3 (some centres not stated)
Completion: 39.3 µM

Prompt: Request: O=C1c2ccccc2C(=Nc2ccc3ccccc3c2)C1(C1=C(c2ccccc2)C(=Nc2ccc3ccccc3c2)c2ccccc21)c1ccccc1 (configuration not stated)
Completion: > 94.1 µM

Prompt: Request: `Cn1c2c([N+](=O)[O-])cccc2c(=O)c2c(O)cc3c(c21)C=CC(C)(C)O3`
Completion: > 100 µM

Prompt: Request: CC1OC(OC2C(O)C(OCCc3ccc(O)c(O)c3)OC(CO)C2OC(=O)/C=C/c2ccc(O)c(O)c2)C(O)C(O)C1OC1OCC(O)(CO)C1O (configuration not stated)
Completion: > 100 µM

Prompt: Request: `Oc1ccc(-c2nc3ccc4ccccc4c3c3c2CCCC3)c(O)c1`
Completion: > 68.1 µM

Prompt: Request: `C/C(=N\NC(=S)Nc1ccccc1)c1nc2ncccc2[nH]1`
Completion: 16 µM

Prompt: Request: `CN(C)c1[se]nc2c1c(=O)n(C)c(=O)n2C`
Completion: > 100 µM

Prompt: Request: `CO[C@@H]1C[C@H]2[C@@H]3CC[C@H]([C@H](C)CO)[C@@]3(C)CC[C@@H]2[C@@]2(C)CC[C@H]3C[C@]312`
Completion: > 100 µM

Prompt: Request: `COc1ccc(-c2nnc(COc3ccc(Cl)cc3Cl)o2)cc1OC`
Completion: > 100 µM

Prompt: Request: `CCN(CC)CCn1ncc2c3c(=O)c4cccnc4n(CCN(CC)CC)c3ccc21`
Completion: > 10 µM

----------
Test system: A498 renal
experimental protocol: NCI tumour cell line growth inhibition, 48 h; in the data active means GI50 below about 0.43 µM; inactive means the rest
The reply should name one outcome from class 1 for active, class 0 for inactive

Prompt: Recorded call for CCOC(=O)c1ccc2c(c1)[n+](=O)c(C(=O)C1CCCS1)c(C(F)(F)F)n2[O-] (configuration not stated) ?
Completion: class 0

Prompt: Request: `O=C(Nc1ccc(-n2cc(-c3ccncc3)c(-c3ccc(O)c(Cl)c3)n2)cc1)c1cc(C(F)(F)F)cc(C(F)(F)F)c1`
Completion: class 0

Prompt: Request: `COc1cc(C(=O)c2c(-c3ccccc3)oc3c(OC)cccc23)cc(OC)c1O`
Completion: class 1

Prompt: Request: `CCOC(=O)Cc1csc(NC(=O)COC(=O)c2ccc(N)cc2)n1`
Completion: class 0

Prompt: Request: `N#Cc1c(-c2ccc(Cl)cc2)csc1NC(=O)Nc1ccc(Cl)c(C(F)(F)F)c1`
Completion: class 0

Prompt: Request: C=C1c2c(C)nn(-c3ccc(OC)cc3)c2N(C)C23C[C@@H]1C1(C)c4c(C)nn(-c5ccc(OC)cc5)c4N(C)C(C)(C[C@H]12)C3 (some centres not stated)
Completion: class 0

Prompt: Request: `C[CH2][Sn]([CH2]C)([O]C(=O)c1cccc(OC)c1)[O][Sn]([CH2]C)([CH2]C)[O]C(=O)c1cccc(OC)c1`
Completion: class 0

----------
Test system: ACHN renal
experimental protocol: NCI tumour cell line growth inhibition, 48 h
parameter measured: TGI

Prompt: What TGI value was documented for this molecule, `COc1ccc(-c2c(-c3cc(OC)c(OC)c(OC)c3)nc3sc(C4CC4)nn23)cc1OC` ?
Completion: 42.6 µM

Prompt: Request: `O=[N+]([O-])c1ccc(C(Br)c2ccc([N+](=O)[O-])cc2)cc1`
Completion: 26.5 µM

Prompt: Request: `CCNCCCn1c2c(c3ccc(F)cc3c1=O)C(=O)c1cc(OC)cnc1-2`
Completion: 0.371 µM

Prompt: Request: `CO[C@@H]1C[C@H]2[C@@H]3CC[C@H]([C@H](C)CO)[C@@]3(C)CC[C@@H]2[C@@]2(C)CC[C@H]3C[C@]312`
Completion: > 100 µM

Prompt: Request: `C[n+]1c2ccccc2n2c3ccccc3c(NCCCN3CCOCC3)c(C#N)c21`
Completion: > 25.5 µM

Prompt: Request: `C(=N\c1nc2cc3sc(/N=C/c4cccs4)nc3cc2s1)/c1cccs1`
Completion: > 100 µM

Prompt: Request: `c1cc(-c2ccc(-c3ccc(-c4ccc(-c5cccc6nsnc56)[nH]4)c4nsnc34)[nH]2)c2nsnc2c1`
Completion: > 100 µM

Prompt: Request: COc1cc(C2NCCC(c3ccccc3)(c3ccccc3)N2)cc(OC)c1OC (centres undefined)
Completion: > 100 µM

Prompt: Request: `N#Cc1c(-c2ccc([N+](=O)[O-])cc2)cc(-c2ccc(Nc3ccnc4cc(C(F)(F)F)ccc34)cc2)[nH]c1=O`
Completion: > 100 µM
